Reported pIC50 values are given for each entry in this list.
- system.under.test: β5c (Homo sapiens, UniProt P20618+P28074)
- Construct: protease activity associated with the proteasome complex in cultured cells; endogenous in cells
- test.protocol: Cell-Based Proteasome Activity/Selectivity Assay (Ramos cells), substrate (WLA)2Rh110
- measurement.conditions: highest concentration tested 20 μM
pIC50: −log10 of the molar value.

[
  {
    "compound": "C[C@H](NC(=O)OCc1ccccc1)C(=O)NC(CC(F)(F)F)C(=O)N[C@@H](Cc1ccccc1)C(=O)C(=O)NCc1ccccc1 (some centres unmarked) [Example 57]",
    "pIC50": 5.21
  },
  {
    "compound": "CCCC[C@H](NC(=O)[C@H](Cc1ccc(OC)cc1)NC(=O)[C@H](C)NC(=O)CN1CCOCC1)C(=O)C(=O)NC [Example 14]",
    "pIC50": 4.78
  },
  {
    "compound": "C[C@H](NC(=O)c1ccnn1C)C(=O)N[C@@H](Cc1c[nH]c2ccccc12)C(=O)N[C@@H](Cc1ccccc1)C(=O)C(=O)NCc1ccccc1 [Example 30]",
    "pIC50": 5.61
  },
  {
    "compound": "C[C@H](NC(=O)OCc1ccccc1)C(=O)N[C@@H](Cc1ccncc1)C(=O)N[C@@H](Cc1ccccc1)C(=O)C(=O)NCc1ccccc1 [Example 58]",
    "pIC50": 6.02
  },
  {
    "compound": "CCCC[C@H](NC(=O)[C@H](Cc1ccc(OC)cc1)NC(=O)[C@H](C)NC(=O)CN1CCOCC1)C(=O)C(=O)NCc1ccccc1 [Example 3]",
    "pIC50": 5.49
  },
  {
    "compound": "CCCCC(NC(=O)[C@H](COC)NC(=O)[C@H](C)NC(=O)c1cc(C)on1)C(=O)C(=O)NCc1ccccc1 (mixture of isomers) [Example 6]",
    "pIC50": 5.26
  },
  {
    "compound": "CC(C)C[C@H](NC(=O)[C@H](C)NC(=O)C1Cc2ccccc2C1)C(=O)N[C@@H](Cc1ccccc1)C(=O)C(=O)NCc1ccccc1 [Example 24]",
    "pIC50": 6.57
  },
  {
    "compound": "Cc1cc(C(=O)N[C@@H](C)C(=O)N[C@@H](Cc2ccccc2)C(=O)N[C@@H](Cc2ccccc2)C(=O)C(=O)NCc2ccccc2)n(C)n1 [Example 53]",
    "pIC50": 5.86
  },
  {
    "compound": "C[C@H](NC(=O)N1Cc2ccccc2C1)C(=O)N[C@@H](Cc1ccccc1)C(=O)N[C@@H](Cc1ccccc1)C(=O)C(=O)NCc1ccccc1 [Example 52]",
    "pIC50": 5.63
  },
  {
    "compound": "CNC(=O)C(=O)[C@H](Cc1ccccc1)NC(=O)[C@H](Cc1c[nH]c2ccccc12)NC(=O)[C@H](C)NC(=O)OCc1ccccc1 [Example 31]",
    "pIC50": 6.13
  },
  {
    "compound": "COc1ccc(C[C@H](NC(=O)[C@H](C)NS(=O)(=O)c2ccccc2)C(=O)N[C@@H](Cc2ccccc2)C(=O)C(=O)NCc2ccccc2)cc1 [Example 39]",
    "pIC50": 5.86
  },
  {
    "compound": "C[C@H](NC(=O)c1cc2ccccc2n1C)C(=O)N[C@@H](Cc1ccccc1)C(=O)N[C@@H](Cc1ccccc1)C(=O)C(=O)NCc1ccccc1 [Example 44]",
    "pIC50": 5.91
  },
  {
    "compound": "C[C@H](NC(=O)OCc1ccccc1)C(=O)N[C@@H](Cc1ccccn1)C(=O)N[C@@H](Cc1ccccc1)C(=O)C(=O)NCc1ccccc1 [Example 50]",
    "pIC50": 5.54
  },
  {
    "compound": "CCCC[C@H](NC(=O)[C@H](CCS(C)(=O)=O)NC(=O)[C@H](C)NC(=O)C1=C(C)c2ccccc2C1)C(=O)C(=O)NCc1ccccc1 [Example 15]",
    "pIC50": 5.45
  },
  {
    "compound": "C[C@H](NC(=O)OCc1ccccc1)C(=O)N[C@@H](Cc1c[nH]c2ccccc12)C(=O)N[C@@H](Cc1ccccc1)C(=O)C(=O)NCc1ccccn1 [Example 34]",
    "pIC50": 5.96
  },
  {
    "compound": "CC1=C(C(=O)N[C@@H](C)C(=O)N[C@@H](Cc2c[nH]c3ccccc23)C(=O)N[C@@H](Cc2ccccc2)C(=O)C(=O)NCc2ccccc2)Cc2ccccc21 [Example 48]",
    "pIC50": 5.99
  },
  {
    "compound": "COc1ccc(C[C@H](NC(=O)[C@H](C)NC(=O)OCc2ccccc2)C(=O)N[C@@H](Cc2ccccc2)C(=O)C(=O)NCc2ccccc2)cc1 [Example 17]",
    "pIC50": 6.01
  },
  {
    "compound": "CCCC[C@H](NC(=O)[C@H](Cc1c[nH]c2ccccc12)NC(=O)[C@H](C)NC(=O)C1Cc2ccccc2C1)C(=O)C(=O)NCc1ccccc1 [Example 11]",
    "pIC50": 6.33
  },
  {
    "compound": "C[C@H](NC(=O)OCc1ccccc1)C(=O)NC(CC1CCOCC1)C(=O)N[C@@H](Cc1ccccc1)C(=O)C(=O)NCc1ccccc1 (some centres unmarked) [Example 56]",
    "pIC50": 5.51
  },
  {
    "compound": "CCCC[C@H](NC(=O)[C@H](CC(C)C)NC(=O)[C@@H](NC(=O)[C@H](Cc1ccccc1C)NC(C)=O)C(C)(C)C)C(=O)C(=O)NCc1ccccc1 [Example 1]",
    "pIC50": 6.35
  },
  {
    "compound": "Cc1cc(C(=O)N[C@@H](C)C(=O)N[C@@H](Cc2c[nH]c3ccccc23)C(=O)N[C@@H](Cc2ccccc2)C(=O)C(=O)NCc2ccccc2)no1 [Example 47]",
    "pIC50": 5.86
  },
  {
    "compound": "COc1ccc(C[C@H](NC(=O)[C@H](C)NC(=O)c2cnccn2)C(=O)N[C@@H](Cc2ccccc2)C(=O)C(=O)NCc2ccccc2)cc1 [Example 29]",
    "pIC50": 5.69
  },
  {
    "compound": "COCCNC(=O)C(=O)[C@H](Cc1ccccc1)NC(=O)[C@H](Cc1c[nH]c2ccccc12)NC(=O)[C@H](C)NC(=O)OCc1ccccc1 [Example 33]",
    "pIC50": 6.22
  }
]

----------
- Test system: IP10 level in PBMCs stimulated with CpG Type A
- test.protocol: PBMC IP-10 Assay
- Assay type: cell-based
- measurement.conditions: CpG Type A 2.5 μM
So basically, if EC50 comes in under 4 µM it's fulfilled, and if it's 4 µM or more it's not fulfilled.

[
  {
    "compound": "C[C@H](NC(=O)CN1CCOCC1)C(=O)N[C@@H](Cc1c[nH]c2ccccc12)C(=O)N[C@@H](Cc1ccccc1)C(=O)C(=O)NCc1ccccc1 [Example 22]",
    "label.class": "not fulfilled"
  },
  {
    "compound": "COc1ccc(C[C@H](NC(=O)[C@H](C)NS(=O)(=O)c2ccccc2C)C(=O)N[C@@H](Cc2ccccc2)C(=O)C(=O)NCc2ccccc2)cc1 [Example 40]",
    "label.class": "fulfilled"
  },
  {
    "compound": "Cc1cc(C(=O)N[C@@H](C)C(=O)N[C@@H](Cc2ccccc2)C(=O)N[C@@H](Cc2ccccc2)C(=O)C(=O)NCc2ccccc2)n(C)n1 [Example 53]",
    "label.class": "not fulfilled"
  },
  {
    "compound": "CCCC[C@H](NC(=O)[C@H](CCS(C)(=O)=O)NC(=O)[C@H](C)NC(=O)C1=C(C)c2ccccc2C1)C(=O)C(=O)NCc1ccccc1 [Example 15]",
    "label.class": "fulfilled"
  }
]

----------
- system.under.test: β5i (Homo sapiens, UniProt P20618+P28062)
- Construct: protease activity associated with the proteasome complex in cultured cells; endogenous in cells
- test.protocol: Cell-Based Proteasome Activity/Selectivity Assay (Ramos cells), substrate (ANW)2Rh110
- measurement.conditions: highest concentration tested 20 μM, read-out: Ic50 ramos:ac-(anw)2-r110
So basically, if IC50 comes in under 30 nM it's t, and if it's 30 nM or more it's f.

[
  {
    "structure.smiles.string": "C[C@H](NC(=O)c1cc2ccccc2n1C)C(=O)N[C@@H](Cc1ccccc1)C(=O)N[C@@H](Cc1ccccc1)C(=O)C(=O)NCc1ccccc1",
    "label.class": "t"
  },
  {
    "structure.smiles.string": "CCCC[C@H](NC(=O)[C@H](Cc1c[nH]c2ccccc12)NC(=O)[C@H](C)NC(=O)OCc1ccccc1)C(=O)C(=O)NCc1ccccc1",
    "label.class": "t"
  },
  {
    "structure.smiles.string": "CCn1nccc1C(=O)N[C@@H](C)C(=O)N[C@@H](Cc1ccccc1)C(=O)N[C@@H](Cc1ccccc1)C(=O)C(=O)NCc1ccccc1",
    "label.class": "f"
  },
  {
    "structure.smiles.string": "CCCC[C@H](NC(=O)[C@H](Cc1c[nH]c2ccccc12)NC(=O)[C@H](C)NC(=O)c1ccnn1C)C(=O)C(=O)NCc1ccccc1",
    "label.class": "f"
  },
  {
    "structure.smiles.string": "COc1ccc(C[C@H](NC(=O)[C@H](C)NC(=O)CCc2ccnn2C)C(=O)N[C@@H](Cc2ccccc2)C(=O)C(=O)NCc2ccccc2)cc1",
    "label.class": "t"
  },
  {
    "structure.smiles.string": "CC(C)C[C@H](NC(=O)[C@H](C)NC(=O)C1Cc2ccccc2C1)C(=O)N[C@@H](Cc1ccccc1)C(=O)C(=O)NCc1ccccc1",
    "label.class": "t"
  }
]

Numbers sourced from patent US20150274777A1.
